Test system: DU-145 prostate
Assay: NCI-60 one-dose screen, 48 h
Conditions: 10 µM unless noted
Compounds without any hit were thinned out: in the full panel of roughly 83,000, 20% have a hit. Calls of active or inactive are those of the source. Rule for the calls: active = growth percent below 10; inactive = the rest.
Reply using exactly one outcome from yes (1) for active, no (0) for inactive

• CCOC(=O)c1cnc2c(OC)ccc(OC)c2c1Cl = no (0)
• O=C1c2ccccc2OC=C(c2ccccc2)N1CCCCN1CCCCC1 = no (0)
• Cc1ccc(-c2nc3c(N=Nc4ccc(S(N)(=O)=O)cc4)c(N)nn3c(N)c2C#N)cc1 = no (0)
• COc1ccc(-c2nn(-c3ccc(NC(=O)c4cc(Cl)cc(Cl)c4)cc3)cc2-c2ccncc2)cc1Cl = no (0)

Turning now to a further compound:
Lab log entry: CC(/C=C/C=C(\C)[C@H](O)[C@H](C)C(=O)O[C@H]1C[C@H](C)C=C2C=C[C@@]3(C)O[C@@H](O)CC(=O)[C@]3(C)[C@H]21)=C\C=C\C(=O)O — outcome as called in the assay?
yes (1)

====

Test system: BT-549 breast
Assay: NCI-60 one-dose screen, 48 h
Conditions: 10 µM unless noted
Procedure: Growth inhibition of the BT-549 human tumor cell line is measured as a screen for anti-cancer activity. Cells are grown in 96 well plates and exposed to the test compound for 48 hours. Compounds are tested at a single concentration, which is 10^-5 M for most compounds. The reported endpoint is percent growth (GI% or GIPRCNT), where numbers from 0 - 100% represent growth inhibition, and numbers from -100% - 0 represent cell death. For example, a value of 40 represents 60% growth inhibition. […]
About 83,000 compounds went through this panel and 20% of them were active in at least one assay; those are over-represented in the sample as a whole. Calls of active or inactive are those of the source. The calls were made as follows: active = growth percent below 10; inactive = the rest.
Reply using exactly one outcome from Y for active, N for inactive

Some entries whose results are on file:
* C/C(=N/O)c1ccc(NC(=O)Cn2nc(-c3ccc(Cl)cc3)nc2N)cc1 | N
* COc1ccccc1S(=O)(=O)Nc1ccc2c3c(cc(-c4ccoc4)nc13)C(=O)N2C | N

Turning now to a further compound:
Lab log entry: CCCCCn1ncc(-c2c(O)c(O)cc3c(O)c(-c4c(C)cc5c(-c6cnn(CCCCC)n6)c(O)c(O)cc5c4O)c(C)cc23)n1 — outcome as called in the assay?
Y

====

Test system: NCI-H522 lung
Experiment: NCI-60 one-dose screen, 48 h (100 = growth as untreated, 0 = no growth, -100 = all killed)
Conditions: 10 µM unless noted
The panel holds about 83,000 compounds, 20% with a hit somewhere; the sample as a whole holds those more often.
measurement_kind: growth (%)
Your answer is read as %, so omit the unit and give the number.

Take a look at these entries with their results.
* CCN(CC)CC(=O)Nc1c(C)cccc1C | 101
* CC(=O)N1N=C(CCC(=O)c2nc3ccc([N+](=O)[O-])cc3[nH]2)OC1c1ccc(O)cc1 (configuration not stated) | 51.3
* c1ccc([Se]CCCN2CCN(CCC[Se]c3ccccc3)CC2)cc1 | 119

# context switch: different compound, same growth
Notebook entry, NCI-H522 lung assay: growth of C=C1C(=O)O[C@H]2[C@H]1CC/C(COC(=O)c1cc(OC)c(OC)c(OC)c1)=C\CC[C@@]1(C)O[C@@H]21 = ?
-88.4

====

Test system: SF-539 CNS
Experiment: NCI-60 one-dose screen, 48 h (100 = growth as untreated, 0 = no growth, -100 = all killed)
Conditions: 10 µM unless noted
Compounds without any hit were thinned out: in the full panel of roughly 83,000, 20% have a hit.
measurement_kind: growth (%)
Your answer is read as %, so omit the unit and give the number.

- COc1cc(-c2nc3ccccc3s2)ccc1OCc1nc2n(n1)S(=O)(=O)c1ccccc1N2C: 52.4
- O=[N+]([O-])c1ccc(NS(=O)(=O)c2ccccc2)c2ccccc12: 45.1
- CC(Cl)(CCl)CS(=O)(=O)c1ccc(Cl)cc1 (stereo unspecified): 107
- C=C1C(=O)O[C@H]2[C@H]1CC/C(COC(=O)c1ccc(Cl)nc1)=C\CC[C@@]1(C)O[C@@H]21: -34.5
- Nc1n[nH]c2cccc(C#Cc3cccc(NC(=O)c4cccc(C(F)(F)F)c4)c3)c12: -19.9

# context switch: different compound, same growth
GET /values?readout=growth&item= c1ccc(-c2nc3sc(C(c4ccccc4)c4ccccc4)nn3c2-c2ccccc2)cc1
98

====

Tested on: HOP-92 NSCLC
Assay: NCI-60 one-dose screen, 48 h
Details: 10 µM unless noted
This is part of a sample that, as a whole, favours compounds with a hit. Of some 83,000 tested, about 20% had one in any assay. Active and inactive are the calls of the source. Rule for the calls: active = growth percent below 10; inactive = the rest.
Reply using exactly one outcome from True (active), False (inactive)

Lab log entry: CN(C)CCS(=O)(=O)Nc1cc(-c2ccc3ncnc(Nc4ccc(F)c(Cl)c4)c3c2)cnc1Cl — outcome as called in the assay?
True

Lab log entry: C=C1C(=O)O[C@H]2[C@H]1CC/C(COC(=O)n1ccnc1C)=C\CC[C@@]1(C)O[C@@H]21 — outcome as called in the assay?
False

Lab log entry: Cc1[nH]c2ccc(F)cc2c1CCNC(=O)C1CCN(C(=O)c2ccc(-c3ccccc3)cc2)CC1 — outcome as called in the assay?
False

====

Test system: NCI-H522 lung
Assay: NCI-60 one-dose screen, 48 h
Details: 10 µM unless noted
This is part of a sample that, as a whole, favours compounds with a hit. Of some 83,000 tested, about 20% had one in any assay. Active and inactive are the calls of the source. Rule for the calls: active = growth percent below 10; inactive = the rest.
Reply using exactly one outcome from t for active, f for inactive

* COc1cc(C(=O)N2CCN(C(=O)c3cc(OC)c(OCc4ccccc4)cc3N)CC2)c(N)cc1OCc1ccccc1 | f

Lab log entry: Cc1cc(N2CCOCC2)nc(N(CCNc2ccnc3cc(Cl)ccc23)Cc2ccco2)n1 — outcome as called in the assay?
f

Lab log entry: COc1cc(C(=O)NNC(=O)c2ccccc2C(=O)O)cc(OC)c1OC — outcome as called in the assay?
f

Lab log entry: COc1ccc(OCC(O)CN2CCN(c3ccc(Cl)cc3)CC2)cc1 (stereo not drawn) — outcome as called in the assay?
f

====

System: NCI-H522 lung
Test: NCI-60 one-dose screen, 48 h (100 = growth as untreated, 0 = no growth, -100 = all killed)
Conditions: 10 µM unless noted
Compounds without any hit were thinned out: in the full panel of roughly 83,000, 20% have a hit.
measurement_kind: growth (%)
Your answer is read as %, so omit the unit and give the number.

Take a look at these entries with their results.
* Cc1c(C(C)(C)C)cc(C(C)(C)C)c2c1CN(C)CO2 | 93.4
* O=C1/C(=C/c2cccc3cnccc23)Cc2cc(F)ccc21 | 78.4
* Cc1nccc2c3ccc(OCc4cn(-c5ccc(Br)cc5)nn4)cc3n(CCCc3ccccc3)c12 | 84.9
* COc1ccccc1S(=O)(=O)Nc1ccc2c3c(cc(-c4cnn(C)c4)nc13)C(=O)N2C | 36

GET /values?readout=growth&item= CCCc1nn2c(CCC(=O)c3nc4ccc([N+](=O)[O-])cc4[nH]3)nnc2s1
104

GET /values?readout=growth&item= O=C(Nc1ccc(-n2cc(-c3ccncc3)c(-c3ccc(O)c(Cl)c3)n2)cc1)c1ccc(Cl)c(Cl)c1
26.3

====

Listed below: growth values for each entry.
System: NCI-H522 lung
Assay: NCI-60 one-dose screen, 48 h (100 = growth as untreated, 0 = no growth, -100 = all killed)
Details: 10 µM unless noted
Compounds without any hit were thinned out: in the full panel of roughly 83,000, 20% have a hit. The source made the active and inactive calls. How the source made its calls: active means growth percent below 10; inactive means the rest.

* O=C(Nc1ccc(-n2cc(-c3ccncc3)c(-c3ccc(O)c(Cl)c3)n2)cc1)c1cc(C(F)(F)F)cc(C(F)(F)F)c1 | 62.8% (inactive)

GET /values?readout=growth&item= Cn1c(I)c(C#C[Si](C)(C)C)c(=O)[nH]c1=O
-58.7% (active)

GET /values?readout=growth&item= O=S1(=O)N(CCNc2nccc(-c3c(-c4cccc(O)c4)nc4sccn34)n2)CCN1Cc1ccccc1
52.1% (inactive)
